The entries below are paired with their reported cell viability.
test system: NOMO1; assay: cell viability relative to DMSO control; higher = less cytotoxic; conditions: RPMI 5 mM glucose + 10% dialyzed FBS; 48 h; 0.0632 µM
Express your answer in %, writing the number without its unit.

CN(C)c1ccc2cc(C(=O)N[C@@H](CCCNC(=N)CCl)C(=O)NCc3ccccc3)ccc2c1 :: 111

## Task Field request: cell viability | item: "O=C1NC(=O)/C(=C/c2cccc(C(F)(F)F)c2)S1"
## Result 93.1

## Task // query: COc1ccc2c(c1OC)CN1CCc3cc4c(cc3C1C2)OCO4 (stereo unspecified)
## Result 102
